Test system: Bacillus cereus
Assay: Antibacterial activity against 10^5 CFU/mL Bacillus cereus MTCC 619 after 24 hrs by agar streak dilution method
Assay type: functional
Conditions: MTCC 619, 24 h
Property: MIC

Compound: N#Cc1ccc(Nc2nc(Oc3ccnc4ccccc34)nc(N3CCOCC3)n2)cc1C(F)(F)F
MIC: 100 µg/mL

Compound: N#Cc1ccc(Nc2nc(Oc3ccnc4ccccc34)nc(N3CCN(c4ncccn4)CC3)n2)cc1C(F)(F)F
MIC: 50 µg/mL

Compound: CC(C)N1CCN(c2nc(Nc3ccc(C#N)c(C(F)(F)F)c3)nc(Oc3ccnc4ccccc34)n2)CC1
MIC: 50 µg/mL

What value of MIC has been recorded for this entry: "O=C(O)c1cn(C2CC2)c2cc(N3CCNCC3)c(F)cc2c1=O"
≤ 1 µg/mL

What value of MIC has been recorded for this entry: "COc1ccc(N2CCN(c3nc(Nc4ccc(C#N)c(C(F)(F)F)c4)nc(Oc4ccnc5ccccc45)n3)CC2)cc1"
6.25 µg/mL

###

Test system: Staphylococcus aureus
Assay: Antibacterial activity against 10^5 CFU/mL Staphylococcus aureus MTCC 96 after 24 hrs by disc diffusion technique
Type: functional
Everything with inhibition zone (IZ) lower than 20 mm is criterion not met; everything else, including exactly 20 mm, is criterion met.

Compound: CC1CC(C)CN(c2nc(Nc3ccc(C#N)c(C(F)(F)F)c3)nc(Oc3ccnc4ccccc34)n2)C1 (configuration not stated)
Label: criterion met
//
Compound: CN1CCN(c2nc(Nc3ccc(C#N)c(C(F)(F)F)c3)nc(Oc3ccnc4ccccc34)n2)CC1
Label: criterion not met
//
Compound: COc1ccc(CN2CCN(c3nc(Nc4ccc(C#N)c(C(F)(F)F)c4)nc(Oc4ccnc5ccccc45)n3)CC2)c(OC)c1OC
Label: criterion met
//
Compound: CC(C)N1CCN(c2nc(Nc3ccc(C#N)c(C(F)(F)F)c3)nc(Oc3ccnc4ccccc34)n2)CC1
Label: criterion met
//
Compound: N#Cc1ccc(Nc2nc(Oc3ccnc4ccccc34)nc(N3CCN(c4ncccn4)CC3)n2)cc1C(F)(F)F
Label: criterion met

Has "N#Cc1ccc(Nc2nc(Oc3ccnc4ccccc34)nc(N3CCN(C(c4ccccc4)c4ccccc4)CC3)n2)cc1C(F)(F)F" a recorded inhibition zone (IZ) greater than or equal to 20 mm?
criterion met

Has N#Cc1ccc(Nc2nc(Oc3ccnc4ccccc34)nc(N3CCN(C(c4ccccc4)c4ccc(Cl)cc4)CC3)n2)cc1C(F)(F)F (configuration not stated) a recorded inhibition zone (IZ) greater than or equal to 20 mm?
criterion met

Has "N#Cc1ccc(Nc2nc(Oc3ccnc4ccccc34)nc(N3CCN(c4ccccc4Cl)CC3)n2)cc1C(F)(F)F" a recorded inhibition zone (IZ) greater than or equal to 20 mm?
criterion met

Has "N#Cc1ccc(Nc2nc(Oc3ccnc4ccccc34)nc(N3CCCCC3)n2)cc1C(F)(F)F" a recorded inhibition zone (IZ) greater than or equal to 20 mm?
criterion not met

Has "N#Cc1ccc(Nc2nc(Oc3ccnc4ccccc34)nc(N3CCN(c4ccccc4F)CC3)n2)cc1C(F)(F)F" a recorded inhibition zone (IZ) greater than or equal to 20 mm?
criterion met

Has "N#Cc1ccc(Nc2nc(Oc3ccnc4ccccc34)nc(N3CCN(Cc4ccccc4)CC3)n2)cc1C(F)(F)F" a recorded inhibition zone (IZ) greater than or equal to 20 mm?
criterion met

Has "N#Cc1ccc(Nc2nc(Oc3ccnc4ccccc34)nc(N3CCN(c4ccccn4)CC3)n2)cc1C(F)(F)F" a recorded inhibition zone (IZ) greater than or equal to 20 mm?
criterion met

###

Listing of recorded inhibition zone (IZ) by entry.
Test system: Klebsiella pneumoniae; also: test concentration or dose not given here
Assay: Antibacterial activity against 10^5 CFU/mL Klebsiella pneumoniae MTCC 109 after 24 hrs by disc diffusion technique
Format: functional
Field: numeric (mm). Do not append units.

Compound: N#Cc1ccc(Nc2nc(Oc3ccnc4ccccc34)nc(N3CCC(Cc4ccccc4)CC3)n2)cc1C(F)(F)F
Target Under Test: Klebsiella pneumoniae; also: test concentration or dose not given here
inhibition zone (IZ) [mm]: 16

What value of inhibition zone (IZ) has been recorded for this entry: "N#Cc1ccc(Nc2nc(Oc3ccnc4ccccc34)nc(N3CCOCC3)n2)cc1C(F)(F)F"
14

What value of inhibition zone (IZ) has been recorded for this entry: "N#Cc1ccc(Nc2nc(Oc3ccnc4ccccc34)nc(N3CCN(c4cccc(C(F)(F)F)c4)CC3)n2)cc1C(F)(F)F"
23

What value of inhibition zone (IZ) has been recorded for this entry: CC1CC(C)CN(c2nc(Nc3ccc(C#N)c(C(F)(F)F)c3)nc(Oc3ccnc4ccccc34)n2)C1 (stereo not drawn)
23

What value of inhibition zone (IZ) has been recorded for this entry: "COc1ccc(CN2CCN(c3nc(Nc4ccc(C#N)c(C(F)(F)F)c4)nc(Oc4ccnc5ccccc45)n3)CC2)c(OC)c1OC"
23

What value of inhibition zone (IZ) has been recorded for this entry: "N#Cc1ccc(Nc2nc(Oc3ccnc4ccccc34)nc(N3CCN(c4cccc(Cl)c4Cl)CC3)n2)cc1C(F)(F)F"
24

What value of inhibition zone (IZ) has been recorded for this entry: "N#Cc1ccc(Nc2nc(Oc3ccnc4ccccc34)nc(N3CCN(C(c4ccccc4)c4ccccc4)CC3)n2)cc1C(F)(F)F"
17

###

Test system: Klebsiella pneumoniae; also: test concentration or dose not given here
Assay: Antibacterial activity against 10^5 CFU/mL Klebsiella pneumoniae MTCC 109 after 24 hrs by disc diffusion technique
Format: functional
Everything with inhibition zone (IZ) lower than 20 mm is N; everything else, including exactly 20 mm, is Y.

Example results:
Compound: N#Cc1ccc(Nc2nc(Oc3ccnc4ccccc34)nc(N3CCN(c4ccc(F)cc4)CC3)n2)cc1C(F)(F)F
Target Under Test: Klebsiella pneumoniae; also: test concentration or dose not given here
Label: Y
--
Compound: N#Cc1ccc(Nc2nc(Oc3ccnc4ccccc34)nc(N3CCCCC3)n2)cc1C(F)(F)F
Target Under Test: Klebsiella pneumoniae; also: test concentration or dose not given here
Label: N
--
Compound: CC(=O)N1CCN(c2nc(Nc3ccc(C#N)c(C(F)(F)F)c3)nc(Oc3ccnc4ccccc34)n2)CC1
Target Under Test: Klebsiella pneumoniae; also: test concentration or dose not given here
Label: Y
--
Compound: N#Cc1ccc(Nc2nc(Oc3ccnc4ccccc34)nc(N3CCN(Cc4ccccc4)CC3)n2)cc1C(F)(F)F
Target Under Test: Klebsiella pneumoniae; also: test concentration or dose not given here
Label: N
--
Compound: N#Cc1ccc(Nc2nc(Oc3ccnc4ccccc34)nc(N3CCN(c4ccccc4F)CC3)n2)cc1C(F)(F)F
Target Under Test: Klebsiella pneumoniae; also: test concentration or dose not given here
Label: Y

Has "N#Cc1ccc(Nc2nc(Oc3ccnc4ccccc34)nc(N3CCN(c4ccccn4)CC3)n2)cc1C(F)(F)F" a recorded inhibition zone (IZ) greater than or equal to 20 mm?
N

Has "N#Cc1ccc(Nc2nc(Oc3ccnc4ccccc34)nc(N3CCN(c4ncccn4)CC3)n2)cc1C(F)(F)F" a recorded inhibition zone (IZ) greater than or equal to 20 mm?
N

Has "CC(C)N1CCN(c2nc(Nc3ccc(C#N)c(C(F)(F)F)c3)nc(Oc3ccnc4ccccc34)n2)CC1" a recorded inhibition zone (IZ) greater than or equal to 20 mm?
Y

Has N#Cc1ccc(Nc2nc(Oc3ccnc4ccccc34)nc(N3CCN(C(c4ccccc4)c4ccc(Cl)cc4)CC3)n2)cc1C(F)(F)F (centres undefined) a recorded inhibition zone (IZ) greater than or equal to 20 mm?
Y

###

Tested on: Staphylococcus aureus
Assay: Antibacterial activity against 10^5 CFU/mL Staphylococcus aureus MTCC 96 after 24 hrs by disc diffusion technique
Format: functional
Property: inhibition zone (IZ) (mm)
Field: numeric (mm). Do not append units.

Sample answers from the record:
Structure Smiles: CCN1CCN(c2nc(Nc3ccc(C#N)c(C(F)(F)F)c3)nc(Oc3ccnc4ccccc34)n2)CC1
inhibition zone (IZ), mm: 13
--
Structure Smiles: N#Cc1ccc(Nc2nc(Oc3ccnc4ccccc34)nc(N3CCN(c4cccc(Cl)c4Cl)CC3)n2)cc1C(F)(F)F
inhibition zone (IZ), mm: 28
--
Structure Smiles: COc1ccc(N2CCN(c3nc(Nc4ccc(C#N)c(C(F)(F)F)c4)nc(Oc4ccnc5ccccc45)n3)CC2)cc1
inhibition zone (IZ), mm: 24

What value of inhibition zone (IZ) has been recorded for this entry: "N#Cc1ccc(Nc2nc(Oc3ccnc4ccccc34)nc(N3CCN(c4ccc(F)cc4)CC3)n2)cc1C(F)(F)F"
25

###

Listing of recorded inhibition zone (IZ) by entry.
System: Klebsiella pneumoniae; also: test concentration or dose not given here
Test: Antibacterial activity against 10^5 CFU/mL Klebsiella pneumoniae MTCC 109 after 24 hrs by disc diffusion technique
Assay type: functional
Field: numeric (mm). Do not append units.

Structure Smiles: COc1ccc(N2CCN(c3nc(Nc4ccc(C#N)c(C(F)(F)F)c4)nc(Oc4ccnc5ccccc45)n3)CC2)cc1
Scale Unit: mm
Assay Result: 23

Next, consider the following compound.
What value of inhibition zone (IZ) has been recorded for this entry: "N#Cc1ccc(Nc2nc(Oc3ccnc4ccccc34)nc(N3CCN(c4ccccc4Cl)CC3)n2)cc1C(F)(F)F"
26

###

Tested on: Bacillus cereus
Test: Antibacterial activity against 10^5 CFU/mL Bacillus cereus MTCC 619 after 24 hrs by agar streak dilution method
Assay type: functional
Settings: MTCC 619, 24 h
Property: log10(MIC) (log10 of the value in µg/mL)
Reminder: these figures are log10 of reported MIC, in µg/mL before transformation.

Compound: CCN1CCN(c2nc(Nc3ccc(C#N)c(C(F)(F)F)c3)nc(Oc3ccnc4ccccc34)n2)CC1
log10(MIC): 2.00
--
Compound: N#Cc1ccc(Nc2nc(Oc3ccnc4ccccc34)nc(N3CCC(Cc4ccccc4)CC3)n2)cc1C(F)(F)F
log10(MIC): 1.70
--
Compound: CN1CCN(c2nc(Nc3ccc(C#N)c(C(F)(F)F)c3)nc(Oc3ccnc4ccccc34)n2)CC1
log10(MIC): 2.00
--
Compound: N#Cc1ccc(Nc2nc(Oc3ccnc4ccccc34)nc(N3CCN(C(c4ccccc4)c4ccc(Cl)cc4)CC3)n2)cc1C(F)(F)F (stereo not drawn)
log10(MIC): 1.10
--
Compound: COc1ccc(CN2CCN(c3nc(Nc4ccc(C#N)c(C(F)(F)F)c4)nc(Oc4ccnc5ccccc45)n3)CC2)c(OC)c1OC
log10(MIC): 0.80

Request - read-out log10(MIC) | tested on Bacillus cereus | compound "CC(=O)N1CCN(c2nc(Nc3ccc(C#N)c(C(F)(F)F)c3)nc(Oc3ccnc4ccccc34)n2)CC1"
1.10

Request - read-out log10(MIC) | tested on Bacillus cereus | compound "N#Cc1ccc(Nc2nc(Oc3ccnc4ccccc34)nc(N3CCCCC3)n2)cc1C(F)(F)F"
2.00

Request - read-out log10(MIC) | tested on Bacillus cereus | compound "N#Cc1ccc(Nc2nc(Oc3ccnc4ccccc34)nc(N3CCN(C(c4ccccc4)c4ccccc4)CC3)n2)cc1C(F)(F)F"
1.40
